Target: T1, human ferroportin (SLC40A1) fused in frame with GFP, stably expressed in HEK293 cells (human, UniProt Q9NP59 1-571)
T1 sequence (looked up): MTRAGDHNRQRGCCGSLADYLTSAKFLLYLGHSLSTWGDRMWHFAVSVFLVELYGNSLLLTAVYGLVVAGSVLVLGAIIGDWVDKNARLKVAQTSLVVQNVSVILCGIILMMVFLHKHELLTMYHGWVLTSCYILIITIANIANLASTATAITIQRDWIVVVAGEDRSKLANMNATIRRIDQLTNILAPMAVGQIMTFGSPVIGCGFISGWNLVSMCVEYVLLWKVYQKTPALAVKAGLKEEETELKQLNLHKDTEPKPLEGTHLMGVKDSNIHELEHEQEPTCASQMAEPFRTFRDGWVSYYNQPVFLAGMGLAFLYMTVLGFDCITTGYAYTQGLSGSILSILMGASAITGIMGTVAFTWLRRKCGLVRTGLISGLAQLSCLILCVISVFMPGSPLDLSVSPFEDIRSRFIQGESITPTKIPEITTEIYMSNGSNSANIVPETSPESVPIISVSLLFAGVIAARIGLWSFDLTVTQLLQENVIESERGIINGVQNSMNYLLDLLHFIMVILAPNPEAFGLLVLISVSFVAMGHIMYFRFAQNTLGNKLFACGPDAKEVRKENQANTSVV
Assay: cell-based or functional assay
Bridge positions count the residues as written; N and C are the ends. Square brackets hold non-standard residues; d marks the D form. * marks the point of attachment. Isovaleryl = CC(C)CC(=O)*; Sar = CNCC(=O)O
result_type: Potency EC50 (nM), ferroportin-GFP internalization/degradation

{"binder": "H-DTHF[dA]CIIF-NH2 (SMILES CC[C@H](C)[C@H](NC(=O)[C@H](CS)NC(=O)[C@@H](C)NC(=O)[C@H](Cc1ccccc1)NC(=O)[C@H](Cc1c[nH]cn1)NC(=O)[C@@H](NC(=O)[C@@H](N)CC(=O)O)[C@@H](C)O)C(=O)N[C@H](C(=O)N[C@@H](Cc1ccccc1)C(N)=O)[C@@H](C)CC) [Hy-DTHF-(D)-Ala-CIIF-NH2]", "measured_result": "> 10000 nM"}
{"binder": "H-DTHFPCQIF-NH2 [Hy-DTHFPCQIF-NH2]", "measured_result": "> 1000 nM"}

# query: Potency EC50 (nM), ferroportin-GFP internalization/degradation of entry Isovaleryl-DTHAPCIKFEPRSK[Sar]WECK-NH2 (disulfide 6-18 (inferred)) [Isovaleric acid-DTHAPCIKFEPRSK-[Sarc]-WECK-NH2] > 10000 nM
